This section presents compounds with their documented mass density values.
# test_parameters: 318.15 K; 10000 kPa; Liquid; Vibrating tube method
Note: unit kg/m3 is implicit; provide only the numeric part.

compound: CCCCOC [butyl methyl ether]
mass density [kg/m3]: 732.32

Challenge: Given the compound CC(C)OC(C)C [diisopropyl ether] , what is its reported mass density?
Response given: 711.3

Challenge: Given the compound CCCCCOCCCCC [dipentyl ether] , what is its reported mass density?
Response given: 771.74

Challenge: Given the compound CC(C)CCOCCC(C)C [di-(3-methylbutyl) ether] , what is its reported mass density?
Response given: 763.91

Challenge: Given the compound COC(C)(C)C [2-methoxy-2-methylpropane] , what is its reported mass density?
Response given: 727.36

Challenge: Given the compound CCCOCCC [dipropyl ether] , what is its reported mass density?
Response given: 735.01

Challenge: Given the compound CCOC(C)(C)C [2-ethoxy-2-methylpropane] , what is its reported mass density?
Response given: 727.94

Challenge: Given the compound CCCCOCC [butyl ethyl ether] , what is its reported mass density?
Response given: 737.2

###

# test_parameters: 328.15 K; 60000 kPa; Liquid; Vibrating tube method
recorded_metric: mass density (kg/m3)
Note: unit kg/m3 is implicit; provide only the numeric part.

Challenge: Given the compound `CC(C)OC(C)C` , what is its reported mass density?
Response given: 751.94

Challenge: Given the compound `CCCCOC` , what is its reported mass density?
Response given: 768.39

Challenge: Given the compound `CC(C)CCOCCC(C)C` , what is its reported mass density?
Response given: 793.83

Challenge: Given the compound `CCCOCCC` , what is its reported mass density?
Response given: 770.38

Challenge: Given the compound `CCCCOCC` , what is its reported mass density?
Response given: 771.99

Challenge: Given the compound `CCOC(C)(C)C` , what is its reported mass density?
Response given: 766.37

Challenge: Given the compound `CCCCCOCCCCC` , what is its reported mass density?
Response given: 799.82

###

# test_parameters: 328.15 K; 20000 kPa; Liquid; Vibrating tube method
This section presents compounds with their documented mass density values.
Note: unit kg/m3 is implicit; provide only the numeric part.

Some solved cases for reference:
smiles_representation: CC(C)CCOCCC(C)C
recorded_metric: mass density
meas_value: 765.22

smiles_representation: CC(C)OC(C)C
recorded_metric: mass density
meas_value: 714.34

smiles_representation: CCCCCOCCCCC
recorded_metric: mass density
meas_value: 772.51

smiles_representation: CCCCOC
recorded_metric: mass density
meas_value: 733.93

smiles_representation: CCCCOCC
recorded_metric: mass density
meas_value: 738.72

smiles_representation: CCCOCCC
recorded_metric: mass density
meas_value: 736.67

Now examine the next entry.
Challenge: Given the compound `CCOC(C)(C)C` , what is its reported mass density?
Response given: 730.3

###

This section presents compounds with their documented mass density values.
# test_parameters: 328.15 K; 10000 kPa; Liquid; Vibrating tube method
± gives the expanded uncertainty stated by the source.
Number first, unit second: that is the form wanted.

Some solved cases for reference:
smiles_representation: CCCOCCC
mass density: 725.68 ± 0.38 kg/m3

smiles_representation: CC(C)CCOCCC(C)C
mass density: 756.23 ± 0.36 kg/m3

smiles_representation: CCCCOCC
mass density: 727.94 ± 0.37 kg/m3

smiles_representation: CC(C)OC(C)C
mass density: 701.52 ± 0.39 kg/m3

smiles_representation: CCOC(C)(C)C
mass density: 718.21 ± 0.38 kg/m3

Challenge: Given the compound `CCCCOC` , what is its reported mass density?
Response given: 722.64 ± 0.38 kg/m3

Challenge: Given the compound `CCCCCOCCCCC` , what is its reported mass density?
Response given: 764.08 ± 0.36 kg/m3
